Data provenance is ChEMBL document CHEMBL1909046.

assay: DRUGMATRIX: Glutamate, NMDA, Agonism radioligand binding (ligand: [3H] CGP-39653); type: cell membranes, Rattus norvegicus, Wistar, Cerebral cortex, Membrane; details: Not Active = under 50% inhibition at 10 µM
reported-endpoint: IC50

[[record]]
compound = "Oc1c(Cl)cc(Cl)cc1Sc1cc(Cl)cc(Cl)c1O"
reported = "Not Active"

[[record]]
compound = "C=CC[C@@H]1/C=C(\\C)C[C@H](C)C[C@H](OC)[C@H]2O[C@@](O)(C(=O)C(=O)N3CCCC[C@H]3C(=O)O[C@H](/C(C)=C/[C@@H]3CC[C@@H](O)[C@H](OC)C3)[C@H](C)[C@@H](O)CC1=O)[C@H](C)C[C@@H]2OC [TACROLIMUS ANHYDROUS]"
reported = "Not Active"

[[record]]
compound = "N#C[C@H](O[C@@H]1O[C@H](CO[C@@H]2O[C@H](CO)[C@@H](O)[C@H](O)[C@H]2O)[C@@H](O)[C@H](O)[C@H]1O)c1ccccc1"
reported = "Not Active"

[[record]]
compound = "CC[C@H]1OC(=O)[C@H](C)[C@@H](O[C@H]2C[C@@](C)(OC)[C@@H](O)[C@H](C)O2)[C@H](C)[C@@H](O[C@@H]2O[C@H](C)C[C@H](N(C)C)[C@H]2O)[C@](C)(O)C[C@@H](C)/C(=N\\OCOCCOC)[C@H](C)[C@@H](O)[C@]1(C)O"
reported = "Not Active"

[[record]]
compound = "COc1ccc(CN(CCN(C)C)c2ccccn2)cc1"
reported = "Not Active"


* * *

Biological target: Substance-K receptor (Homo sapiens); note: in other assays of this panel Not Active means under 50% inhibition at 10 µM
Sequence (P21452 whole entry): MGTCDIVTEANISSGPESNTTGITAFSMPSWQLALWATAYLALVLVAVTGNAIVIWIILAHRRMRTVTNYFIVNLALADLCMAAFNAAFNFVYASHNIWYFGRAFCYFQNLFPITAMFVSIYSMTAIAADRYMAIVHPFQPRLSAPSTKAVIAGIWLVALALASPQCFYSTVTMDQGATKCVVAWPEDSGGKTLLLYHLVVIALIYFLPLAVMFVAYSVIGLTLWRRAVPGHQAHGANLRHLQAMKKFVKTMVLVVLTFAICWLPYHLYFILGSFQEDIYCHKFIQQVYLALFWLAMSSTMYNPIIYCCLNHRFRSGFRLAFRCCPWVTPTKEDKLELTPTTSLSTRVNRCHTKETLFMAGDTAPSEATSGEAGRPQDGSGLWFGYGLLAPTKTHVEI
Type: cell membranes, CHO, Membrane
Settings: read-out: IC50
pIC50: −log10 of the molar value.
reported-endpoint: pIC50

[[record]]
molecule = "CCCCCCCCCc1ccc(O)cc1 [4-NONYLPHENOL]"
reported = 5.35

[[record]]
molecule = "Clc1ccccc1C(c1ccccc1)(c1ccccc1)n1ccnc1 [CLOTRIMAZOLE]"
reported = 4.99

[[record]]
molecule = "CC(C)(C)NC(=O)[C@@H]1CN(Cc2cccnc2)CCN1C[C@@H](O)C[C@@H](Cc1ccccc1)C(=O)N[C@H]1c2ccccc2C[C@H]1O.O"
reported = 5.29

[[record]]
molecule = "O=c1cc(-c2ccccc2)oc2c1ccc1ccccc12 [ALPHA-NAPHTHOFLAVONE]"
reported = 5.23

[[record]]
molecule = "COc1ccc(CCN2CCC(Nc3nc4ccccc4n3Cc3ccc(F)cc3)CC2)cc1 [ASTEMIZOLE]"
reported = 5.52

[[record]]
molecule = "Oc1c(Cl)cc(Cl)cc1Sc1cc(Cl)cc(Cl)c1O [BITHIONOL]"
reported = 5.33

[[record]]
molecule = "CC(C)(O)c1ccccc1CC[C@@H](SCC1(CC(=O)O)CC1)c1cccc(/C=C/c2ccc3ccc(Cl)cc3n2)c1 [MONTELUKAST]"
reported = 5.42


* * *

assay: DRUGMATRIX: Imidazoline I2, Central radioligand binding (ligand: [3H] Idazoxan); format: cell membranes, Rattus norvegicus, Wistar, Cerebral cortex, Membrane; details: Not Active = under 50% inhibition at 10 µM
reported-endpoint: IC50

[[record]]
molecule = "CCC[C@@H]1C[C@@H](C(=O)N[C@@H]([C@H]2O[C@H](SC)[C@H](O)[C@@H](O)[C@H]2O)[C@@H](C)O)N(C)C1"
reported_endpoint = "IC50"
reported = "Not Active"

[[record]]
molecule = "COc1ccc2c(c1)c(CC(=O)OCC(=O)O)c(C)n2C(=O)c1ccc(Cl)cc1"
reported_endpoint = "IC50"
reported = "Not Active"

[[record]]
molecule = "C=C1[C@@H]2CCC3[C@@](CC[C@@H]4[C@H](C(=O)O)C[C@@H](O[C@@H]5O[C@H](CO)[C@@H](OS(=O)(=O)[O-])[C@H](OS(=O)(=O)[O-])[C@H]5OC(=O)CC(C)C)C[C@@]34C)(C2)[C@@H]1O.[K+].[K+] (stereo partly drawn) [ATRACTYLOSIDE]"
reported_endpoint = "IC50"
reported = "Not Active"

[[record]]
molecule = "O=C1OC2(c3ccc(O)cc3Oc3cc(O)ccc32)c2ccccc21"
reported_endpoint = "IC50"
reported = "Not Active"

[[record]]
molecule = "CCOC(=O)c1ccc(N)cc1"
reported_endpoint = "IC50"
reported = "Not Active"

[[record]]
molecule = "Nc1ccc(S(=O)(=O)Nc2ccnn2-c2ccccc2)cc1"
reported_endpoint = "IC50"
reported = "Not Active"

[[record]]
molecule = "CCC1(c2ccccc2)C(=O)NCNC1=O"
reported_endpoint = "IC50"
reported = "Not Active"

[[record]]
molecule = "O=C1CN=C(c2ccccc2)c2cc([N+](=O)[O-])ccc2N1"
reported_endpoint = "IC50"
reported = "Not Active"


* * *

Molecular target: Muscarinic acetylcholine receptor M5 (Homo sapiens); note: in other assays of this panel Not Active means under 50% inhibition at 10 µM
Sequence (P08912 whole entry): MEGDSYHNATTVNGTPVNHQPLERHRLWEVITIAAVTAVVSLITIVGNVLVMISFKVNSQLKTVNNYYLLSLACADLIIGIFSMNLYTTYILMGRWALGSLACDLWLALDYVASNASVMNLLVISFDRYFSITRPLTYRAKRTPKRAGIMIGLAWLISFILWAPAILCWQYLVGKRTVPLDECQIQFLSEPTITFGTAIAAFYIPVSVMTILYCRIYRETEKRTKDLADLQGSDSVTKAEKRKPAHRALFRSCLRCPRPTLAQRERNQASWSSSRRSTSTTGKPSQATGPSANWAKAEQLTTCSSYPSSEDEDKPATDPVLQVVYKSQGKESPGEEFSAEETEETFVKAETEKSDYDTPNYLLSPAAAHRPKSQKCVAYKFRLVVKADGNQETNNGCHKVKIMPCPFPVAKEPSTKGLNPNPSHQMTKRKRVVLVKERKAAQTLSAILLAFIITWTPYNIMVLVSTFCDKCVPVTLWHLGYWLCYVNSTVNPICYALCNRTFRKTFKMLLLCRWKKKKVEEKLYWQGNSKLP
Type: cell membranes, CHO-K1, Membrane
Conditions: cho-k1
reported-endpoint: IC50

[[record]]
compound = "CC(=O)[C@H]1CC[C@H]2[C@@H]3CCC4=CC(=O)CC[C@]4(C)[C@H]3CC[C@]12C [PROGESTERONE]"
target_or_system = "Muscarinic acetylcholine receptor M5 (Homo sapiens)"
reported = "Not Active"

[[record]]
compound = "Oc1c(Cl)cc(Cl)cc1Sc1cc(Cl)cc(Cl)c1O [BITHIONOL]"
target_or_system = "Muscarinic acetylcholine receptor M5 (Homo sapiens)"
reported = "Not Active"

[[record]]
compound = "c1ccc2c(c1)cc1ccc3cccc4ccc2c1c34"
target_or_system = "Muscarinic acetylcholine receptor M5 (Homo sapiens)"
reported = "Not Active"

[[record]]
compound = "O=c1[nH]cc(F)c(=O)[nH]1 [FLUOROURACIL]"
target_or_system = "Muscarinic acetylcholine receptor M5 (Homo sapiens)"
reported = "Not Active"

[[record]]
compound = "COC1=CC(=O)C[C@@H](C)[C@]12Oc1c(Cl)c(OC)cc(OC)c1C2=O [GRISEOFULVIN]"
target_or_system = "Muscarinic acetylcholine receptor M5 (Homo sapiens)"
reported = "Not Active"

[[record]]
compound = "C=C1C(=O)O[C@@H]2C3O[C@]3(C)CC/C=C(\\C)CC[C@@H]12 (some centres not stated)"
target_or_system = "Muscarinic acetylcholine receptor M5 (Homo sapiens)"
reported = "Not Active"

[[record]]
compound = "CCc1ccc(C(=O)C(C)CN2CCCCC2)cc1 (configuration not stated) [EPERISONE]"
target_or_system = "Muscarinic acetylcholine receptor M5 (Homo sapiens)"
reported = "Not Active"

[[record]]
compound = "COC(=O)[C@@H]1[C@H]2C[C@H]3c4[nH]c5ccccc5c4CCN3C[C@@H]2CC[C@@H]1O [YOHIMBINE]"
target_or_system = "Muscarinic acetylcholine receptor M5 (Homo sapiens)"
reported = "Not Active"

[[record]]
compound = "COc1ccc2cc(CC(=O)O)ccc2c1"
target_or_system = "Muscarinic acetylcholine receptor M5 (Homo sapiens)"
reported = "Not Active"

[[record]]
compound = "Nc1nc2c(ncn2COC(CO)CO)c(=O)[nH]1 [GANCICLOVIR]"
target_or_system = "Muscarinic acetylcholine receptor M5 (Homo sapiens)"
reported = "Not Active"

[[record]]
compound = "COc1cccc(C2(O)CCCCC2CN(C)C)c1 (configuration not stated) [TRAMADOL]"
target_or_system = "Muscarinic acetylcholine receptor M5 (Homo sapiens)"
reported = "Not Active"

[[record]]
compound = "Cc1[nH]cnc1CN1CCc2c(c3ccccc3n2C)C1=O [ALOSETRON]"
target_or_system = "Muscarinic acetylcholine receptor M5 (Homo sapiens)"
reported = "Not Active"

[[record]]
compound = "CO[C@@H]1[C@@H](O[C@@H]2O[C@H](C)[C@@H](O[C@H]3C[C@@](C)(O)[C@@H](OC(=O)CC(C)C)[C@H](C)O3)[C@H](N(C)C)[C@H]2O)[C@@H](CC=O)C[C@@H](C)[C@@H](O)/C=C/C=C/C[C@@H](C)OC(=O)C[C@H]1O [KITASAMYCIN]"
target_or_system = "Muscarinic acetylcholine receptor M5 (Homo sapiens)"
reported = "Not Active"

[[record]]
compound = "N=C(N)NCCCCNC(=N)N.O=S(=O)(O)O [ARCAINE SULFATE]"
target_or_system = "Muscarinic acetylcholine receptor M5 (Homo sapiens)"
reported = "Not Active"

[[record]]
compound = "CC(=O)[C@@]1(O)CC[C@H]2[C@@H]3C[C@H](C)C4=CC(=O)C=C[C@]4(C)[C@@]3(F)[C@@H](O)C[C@@]21C [FLUOROMETHOLONE]"
target_or_system = "Muscarinic acetylcholine receptor M5 (Homo sapiens)"
reported = "Not Active"

[[record]]
compound = "CC(=O)S[C@@H]1CC2=CC(=O)CC[C@]2(C)[C@H]2CC[C@@]3(C)[C@@H](CC[C@@]34CCC(=O)O4)[C@H]12 [SPIRONOLACTONE]"
target_or_system = "Muscarinic acetylcholine receptor M5 (Homo sapiens)"
reported = "Not Active"

[[record]]
compound = "C/C=C1\\[C@H]2C=C(C)C[C@]1(N)c1ccc(=O)[nH]c1C2 [HUPERZINE A]"
target_or_system = "Muscarinic acetylcholine receptor M5 (Homo sapiens)"
reported = "Not Active"

